test system: Escherichia coli TOP10; assay: shrunken log2 fold change of peptide-encoding DNA abundance (4.5 h post-induction vs induction); higher = less antimicrobial activity (less host growth inhibition); conditions: time post-induction: 4.5 h; library: site-saturation at positions 5, 18, 19, 20;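 further: peptides expressed intracellularly from a pBAD plasmid library in pooled LB shake-flask culture, induced with 0.3% L-arabinose, DNA abundance read by NGS, three biological replicates, DESeq2 with apeglm shrinkage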
observationType: shrunken log2 fold change

- entrySequence: "RRIRLRPPRLPRPRPRPIPHPRP"
  testValue: -0.332
- entrySequence: "RRIRMRPPRLPRPRPRPWLYPRP"
  testValue: -0.0206
- entrySequence: "RRIRDRPPRLPRPRPRPQDYPRP"
  testValue: -0.112
- entrySequence: "RRIRTRPPRLPRPRPRPERDPRP"
  testValue: 0.0175
- entrySequence: "RRIRQRPPRLPRPRPRPYHQPRP"
  testValue: -0.631
- entrySequence: "RRIRARPPRLPRPRPRPVRHPRP"
  testValue: 0.399
- entrySequence: "RRIRIRPPRLPRPRPRPFTTPRP"
  testValue: -0.509

Reference source: the supplement of paper PMC9112550
